# Tested on: SW620 (colorectal adenocarcinoma)
# test.name: MTT cell viability assay, SW620
# Type: cell-based, human
# test.context: Homo sapiens, SW-620, 24 h
Quick list: IC50 per entry.

| smiles.repr | assayed.target | IC50 (µM) |
| --- | --- | --- |
| CC(C)(C)c1cc(/C=N/CCNc2ccccc2)c(O)c(C(C)(C)C)c1 | SW620 (colorectal adenocarcinoma) | 27.6 |
| CC(C)(C)c1cc(/C=N/c2cccc3cccnc23)c(O)c(C(C)(C)C)c1 | SW620 (colorectal adenocarcinoma) | 41.9 |

###

# test.name: DPPH radical scavenging assay
# Assay type: biochemical
# test.context: concentration to decrease 50% of DPPH radical formation

| compound | IC50 / µM |
| --- | --- |
| O=C1O[C@H]([C@@H](O)CO)C(O)=C1O [Ascorbic acid, ascorbic acid, reference compound] | 17 |

Reference source for all entries: paper PMC9960331
